System: HeLa Kyoto;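 note: HeLa Kyoto cells arrested at G1/S by double thymidine block, proteins quantified by TMT10plex mass spectrometry in mild NP-40 versus SDS extracts, three biological replicates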
Test: solubility in G1/S (NP-40 vs SDS abundance) (log2 ratio); higher = more soluble
Details: cell cycle stage: G1/S
Label Condition met for high-side solubility in G1/S (log2) (at or above 0.3) and Condition not met for low-side solubility in G1/S (log2) (below it).

Here's what some known entries look like.
### Prompt Does solubility in G1/S (log2) meet or surpass 0.3 for MASRWQNMGTSVRRRSLQHQEQLEDSKELQPVVSHQETSVGALGSLCRQFQRRLPLRAVNLNLRAGPSWKRLETPEPGQQGLQAAARSAKSALGAVSQRIQESCQSGTKWLVETQVKARRRKRGAQKGSGSPTHSLSQKSTRLSGAAPAHSAADPWEKEHHRLSVRMGSHAHPLRRSRREAAFRSPYSSTEPLCSPSESDSDLEPVGAGIQHLQKLSQELDEAIMAEERKQALSDRQGFILKDVYASP [FAM64A] ?
### Response Condition not met

### Prompt Does solubility in G1/S (log2) meet or surpass 0.3 for MASKRALVILAKGAEEMETVIPVDVMRRAGIKVTVAGLAGKDPVQCSRDVVICPDASLEDAKKEGPYDVVVLPGGNLGAQNLSESAAVKEILKEQENRKGLIAAICAGPTALLAHEIGFGSKVTTHPLAKDKMMNGGHYTYSENRVEKDGLILTSRGPGTSFEFALAIVEALNGKEVAAQVKAPLVLKD [PARK7] ?
### Response Condition met

### Prompt Does solubility in G1/S (log2) meet or surpass 0.3 for MTMGDKKSPTRPKRQAKPAADEGFWDCSVCTFRNSAEAFKCSICDVRKGTSTRKPRINSQLVAQQVAQQYATPPPPKKEKKEKVEKQDKEKPEKDKEISPSVTKKNTNKKTKPKSDILKDPPSEANSIQSANATTKTSETNHTSRPRLKNVDRSTAQQLAVTVGNVTVIITDFKEKTRSSSTSSSTVTSSAGSEQQNQSSSGSESTDKGSSRSSTPKGDMSAVNDESF [RYBP] ?
### Response Condition not met

### Prompt Does solubility in G1/S (log2) meet or surpass 0.3 for MSCAGAAAAPRLWRLRPGARRSLSAYGRRTSVRFRSSGMTLDNISRAAVDRIIRVDHAGEYGANRIYAGQMAVLGRTSVGPVIQKMWDQEKDHLKKFNELMVTFRVRPTVLMPLWNVLGFALGAGTALLGKEGAMACTVAVEESIAHHYNNQIRTLMEEDPEKYEELLQLIKKFRDEELEHHDIGLDHDAELAPAYAVLKSIIQAGCRVAIYLSERL [COQ7] ?
### Response Condition not met

### Prompt Does solubility in G1/S (log2) meet or surpass 0.3 for MRSGGRGRPRLRLGERGLMEPLLPPKRRLLPRVRLLPLLLALAVGSAFYTIWSGWHRRTEELPLGRELRVPLIGSLPEARLRRVVGQLDPQRLWSTYLRPLLVVRTPGSPGNLQVRKFLEATLRSLTAGWHVELDPFTASTPLGPVDFGNVVATLDPRAARHLTLACHYDSKLFPPGSTPFVGATDSAVPCALLLELAQALDLELSRAKKQAAPVTLQLLFLDGEEALKEWGPKDSLYGSRHLAQLMESIPHSPGPTRIQAIELFMLLDLLGAPNPTFYSHFPRTVRWFHRLRSIEKRLHRLNLLQSHPQEVMYFQPGEPFGSVEDDHIPFLRRGVPVLHLISTPFPAVWHTPADTEVNLHPPTVHNLCRILAVFLAEYLGL [QPCTL] ?
### Response Condition not met

Further cases:
### Prompt Does solubility in G1/S (log2) meet or surpass 0.3 for MEATTAGVGRLEEEALRRKERLKALREKTGRKDKEDGEPKTKHLREEEEEGEKHRELRLRNYVPEDEDLKKRRVPQAKPVAVEEKVKEQLEAAKPEPVIEEVDLANLAPRKPDWDLKRDVAKKLEKLKKRTQRAIAELIRERLKGQEDSLASAVDAATEQKTCDSD [CCDC12] ?
### Response Condition met
